Measured EC50, listed per entry.
test system: SARS-CoV-2-GHB-03021/2020; assay: microbe, parasite or virus in culture; type: cell-based; conditions: Severe acute respiratory syndrome coronavirus 2, Vero C1008, 96 h; read-out: VeroE6 + CP (EC50)

Prompt line: Identify measured EC50 associated with COc1ccc2[nH]c(C(=O)N3CCC4(CC4)C[C@H]3C(=O)N[C@@H](C[C@@H]3CCNC3=O)C(=O)C(=O)NC3CC3)cc2c1
Response line: 1 to 10 µM

Prompt line: Identify measured EC50 associated with COc1ccc(Br)c2[nH]c(C(=O)N3C[C@@H]4CCC[C@@H]4[C@H]3C(=O)N[C@@H](C[C@@H]3CCNC3=O)C(=O)CO)cc12
Response line: < 1 µM

====

molecular target: 3CLpro (Severe acute respiratory syndrome coronavirus 2, UniProt P0DTD1); experiment: SARS-CoV-2 3CLpro protease assay (duplex, SAMDI-MS); type: biochemical; set-up: For the duplex assay, 3CLpro and HRV3C was added; conditions: 3CLpro, 30 mins preincubation, class symbols; read-out: SARS-Cov-2 IC50
observable: IC50

compound	IC50
COc1ccc2[nH]c(C(=O)N3C[C@@H]4CCC[C@@H]4[C@H]3C(=O)N[C@@H](C[C@@H]3CCNC3=O)C(=O)CO)cc2c1OC [Compound 81]	0.02 to 0.2 µM
O=C(NCc1ccccc1)C(=O)C(C[C@@H]1CCNC1=O)NC(=O)[C@@H]1CCCCN1C(=O)c1cc2ccccc2[nH]1 (stereo partly drawn) [Compound 1]	2 to 20 µM
O=C(NC1CC1)C(=O)[C@H](C[C@@H]1CCNC1=O)NC(=O)[C@@H]1[C@H]2CCC[C@H]2CN1C(=O)c1cc2c(Cl)cc(Cl)cc2[nH]1 [Compound 148]	0.02 to 0.2 µM

Prompt line: Identify measured IC50 associated with COc1cccc2[nH]c(C(=O)N3C[C@@H]4CCC[C@@H]4[C@H]3C(=O)N[C@@H](C[C@@H]3CCNC3=O)C(=O)COP(=O)(O)O)cc12 [Compound 61]
Response line: 0.2 to 2 µM

Prompt line: Identify measured IC50 associated with CC(=O)c1c[nH]c(C(=O)N2C[C@@H]3CCC[C@@H]3[C@H]2C(=O)N[C@@H](C[C@@H]2CCNC2=O)C(=O)CO)c1 [Compound 86]
Response line: 0.02 to 0.2 µM

Prompt line: Identify measured IC50 associated with O=C(NCc1ccccc1)C(=O)C(C[C@@H]1CCNC1=O)NC(=O)[C@@H]1CC2(CC2)CN1C(=O)c1cc2ccccc2[nH]1 (stereo partly drawn) [Compound 9]
Response line: 0.02 to 0.2 µM

Prompt line: Identify measured IC50 associated with O=C(NCc1ccccc1)C(=O)C(C[C@@H]1CCNC1=O)NC(=O)[C@@H]1C[C@@H](C2CC2)CN1C(=O)c1cc2ccccc2[nH]1 (stereo partly drawn) [Compound 40]
Response line: 0.2 to 2 µM

Prompt line: Identify measured IC50 associated with CC1(C)[C@@H]2[C@@H](C(=O)NC(C[C@@H]3CCNC3=O)C(=O)C(=O)NCc3ccccc3)N(C(=O)c3cc4ccccc4[nH]3)C[C@@H]21 (stereo partly drawn) [Compound 4]
Response line: 0.2 to 2 µM

Prompt line: Identify measured IC50 associated with COc1cccc2[nH]c(C(=O)N3C[C@@H]4CCC[C@@H]4[C@H]3C(=O)N[C@@H](C[C@@H]3CCNC3=O)C(=O)C(=O)NCCOCc3ccccc3)cc12 [Compound 101]
Response line: < 0.02 µM

Prompt line: Identify measured IC50 associated with O=C(NCCOCC1CCCC1)C(=O)[C@H](C[C@@H]1CCNC1=O)NC(=O)[C@@H]1[C@H]2CCC[C@H]2CN1C(=O)c1cc2c(Cl)cc(Cl)cc2[nH]1 [Compound 174]
Response line: 0.02 to 0.2 µM

Prompt line: Identify measured IC50 associated with O=C(NCc1ccccc1)C(=O)C(C[C@@H]1CCNC1=O)NC(=O)[C@@H]1C[C@@H](c2ccccc2)CN1C(=O)c1cc2ccccc2[nH]1 (stereo partly drawn) [Compound 7]
Response line: 0.2 to 2 µM

Prompt line: Identify measured IC50 associated with COc1ccc(Br)c2[nH]c(C(=O)N3C[C@@H]4CCC[C@@H]4[C@H]3C(=O)N[C@@H](C[C@@H]3CCNC3=O)C(=O)CO)cc12 [Compound 124]
Response line: < 0.02 µM

====

test: in vitro; conditions: human
observable: CC50

Prompt line: Identify measured CC50 associated with O=C(NC1CC1)C(=O)C(CC1CC2(CC2)NC1=O)NC(=O)[C@@H]1[C@H]2CCC[C@H]2CN1C(=O)c1cc2c(Cl)cc(Cl)cc2[nH]1 (single isomer, unassigned) [Compound 116A]
Response line: > 10 µM

Prompt line: Identify measured CC50 associated with O=C1NCC[C@H]1C[C@H](NC(=O)[C@@H]1[C@H]2CCC[C@H]2CN1C(=O)c1cc(S(=O)(=O)c2ccccc2)c[nH]1)C(=O)CO [Compound 82]
Response line: > 50 µM

Prompt line: Identify measured CC50 associated with O=C1NCC[C@H]1C[C@H](NC(=O)[C@@H]1[C@H]2CCC[C@H]2CN1C(=O)c1cc2c(Cl)ccc(-c3ccccc3)c2[nH]1)C(=O)CO [Compound 168]
Response line: > 10 µM

Prompt line: Identify measured CC50 associated with O=C(NCCCC(F)(F)F)C(=O)[C@H](C[C@@H]1CCNC1=O)NC(=O)[C@@H]1[C@H]2CCC[C@H]2CN1C(=O)c1cc2c(Cl)cc(Cl)cc2[nH]1 [Compound 182]
Response line: 1 to 10 µM

Prompt line: Identify measured CC50 associated with O=C1NCC[C@H]1C[C@H](NC(=O)[C@@H]1[C@H]2CCC[C@H]2CN1C(=O)c1cc2c(Cl)cc(F)cc2[nH]1)C(=O)CO [Compound 90]
Response line: > 50 µM

====

test: in vitro; conditions: African green monkey, VeroE6 + CP (CC50), Vero E6-eGFP cells with CP-100356, absence of virus, MTS; numeric bounds
Measured CC50, listed per entry.

Some molecules with known CC50 results, for comparison:
>>> print(df.to_string())
                                 mol_smiles  experimental_result
0  COc1cccc2[nH]c(C(=O)N3C[C@@H]4CCC[C@@H]4[C@H]3C(=O)N[C@@H](C[C@@H]3CCNC3=O)C(=O)C(=O)NCCO)cc12             > 100 µM
1  O=C1NCC[C@H]1C[C@H](NC(=O)[C@@H]1[C@H]2CCC[C@H]2CN1C(=O)c1cc2c(Cl)cc(F)c(Cl)c2[nH]1)C(=O)CO              > 50 µM

Prompt line: Identify measured CC50 associated with CC(=O)c1c[nH]c(C(=O)N2C[C@@H]3CCC[C@@H]3[C@H]2C(=O)N[C@@H](C[C@@H]2CCNC2=O)C(=O)CO)c1
Response line: > 50 µM

====

biological target: HRV3C (Human rhinovirus 14); assay: HRV3C protease assay (duplex, SAMDI-MS); assay type: biochemical, HRV; conditions: HRV3C, 30 mins preincubation, class symbols; read-out: HRV IC50
pIC50: −log10 of the molar value.
Measured pIC50, listed per entry.

molecule	observable	experimental-result
CC(C)[C@@H]1C[C@@H](C(=O)NC(C[C@@H]2CCNC2=O)C(=O)C(=O)NCc2ccccc2)N(C(=O)c2cc3ccccc3[nH]2)C1 (stereo partly drawn)	pIC50	4.70 to 5.70
O=C(NC1CC1)C(=O)[C@H](C[C@@H]1CCNC1=O)NC(=O)[C@@H]1[C@H]2CCC[C@H]2CN1C(=O)c1cc2c(Cl)cc(Cl)cc2[nH]1	pIC50	5.70 to 6.70

Prompt line: Give pIC50 for COc1cccc2[nH]c(C(=O)N3C[C@@H]4CCC[C@@H]4[C@H]3C(=O)N[C@@H](C[C@@H]3CCNC3=O)C(=O)C(=O)NCCO)cc12 tested on HRV3C (Human rhinovirus 14).
Response line: 5.70 to 6.70

Prompt line: Give pIC50 for O=C(NC1CC1)C(=O)C(CC1CC2(CC2)NC1=O)NC(=O)[C@@H]1[C@H]2CCC[C@H]2CN1C(=O)c1cc2c(Cl)cc(Cl)cc2[nH]1 (single isomer, unassigned) [Compound 116A] tested on HRV3C (Human rhinovirus 14).
Response line: 5.70 to 6.70

Prompt line: Give pIC50 for COc1cccc2[nH]c(C(=O)N3CC4(C5CC5)CC3(C(=O)N[C@@H](C[C@@H]3CCNC3=O)C(=O)C(=O)NC3CC3)C4)cc12 tested on HRV3C (Human rhinovirus 14).
Response line: 6.70 to 7.70

Prompt line: Give pIC50 for O=C1NCC[C@H]1C[C@H](NC(=O)[C@@H]1[C@H]2CCC[C@H]2CN1C(=O)c1cc2c(Cl)cc(Cl)cc2[nH]1)C(=O)CO tested on HRV3C (Human rhinovirus 14).
Response line: 4.70 to 5.70
